Tested on: Hepatitis B virus
Assay: Inhibition of HBV replication with RT L229W substitution and L180M, M204V background from Lamivudine refractory patient transfected into HepG2 cells
Type: functional, organism-based
parameter.measured: pEC50
// pEC50 here means minus log10 of the molar concentration (mol/L)

Name the reported pEC50 value associated with the molecule C=C1[C@H](CO)[C@@H](O)C[C@@H]1n1cnc2c(=O)[nH]c(N)nc21.O 7.48

* * *

Test system: Hepatitis B virus
Test: Inhibition of HBV replication with RT M309L substitution from Lamivudine refractory patient transfected into HepG2 cells
Type: functional, organism-based
parameter.measured: EC50 (nM)
The reply should contain only the number, in nM.

What measured EC50 goes with C=C1[C@H](CO)[C@@H](O)C[C@@H]1n1cnc2c(=O)[nH]c(N)nc21.O ? 4

* * *

Tested on: Hepatitis B virus
Experiment: Inhibition of HBV replication with RT C188S substitution and L80I, L180T, M204V background from Lamivudine refractory patient transfected into HepG2 cells
Format: functional, organism-based
parameter.measured: pEC50
pEC50 is a log-scale quantity: -log10 of the concentration expressed in molar.

Identify the measured pEC50 of C=C1[C@H](CO)[C@@H](O)C[C@@H]1n1cnc2c(=O)[nH]c(N)nc21.O [ENTECAVIR] for Hepatitis B virus. 7.51

* * *

Test system: Hepatitis B virus
Test: Inhibition of HBV replication with RT D263G substitution from Lamivudine refractory patient transfected into HepG2 cells
Assay type: functional, organism-based
parameter.measured: pEC50
Note on units: pEC50 is unitless, being -log10 of a concentration expressed in mol/L.

Tell me the measured pEC50 of C=C1[C@H](CO)[C@@H](O)C[C@@H]1n1cnc2c(=O)[nH]c(N)nc21.O , please. 8.24

These measurements were taken from ChEMBL document CHEMBL1142075.
